Attribution: ChEMBL document CHEMBL4627252

Measured Target: Human immunodeficiency virus type 1 integrase (Human immunodeficiency virus 1)
Sequence (Q7ZJM1 whole entry): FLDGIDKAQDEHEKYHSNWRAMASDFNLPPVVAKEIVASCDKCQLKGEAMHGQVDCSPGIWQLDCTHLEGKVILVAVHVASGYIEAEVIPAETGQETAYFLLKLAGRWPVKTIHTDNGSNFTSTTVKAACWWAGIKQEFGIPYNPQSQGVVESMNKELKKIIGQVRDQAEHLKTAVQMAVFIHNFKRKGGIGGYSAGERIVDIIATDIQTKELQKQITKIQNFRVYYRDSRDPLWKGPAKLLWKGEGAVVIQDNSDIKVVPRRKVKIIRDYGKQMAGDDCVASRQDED
Recorded Endpoint: pIC50
As a rule, pIC50 stands for the negative log10 of the concentration, concentration in M.

Q: Give its pIC50 value. Item: C/C(=N\NC(=O)C(O)C(O)C(=O)N/N=C(\C)c1c(O)c2ccccc2oc1=O)c1c(O)c2ccccc2oc1=O (racemic)
A: 5.46
